Target: LCK (Homo sapiens, UniProt P06239)
Sequence (P06239 whole entry): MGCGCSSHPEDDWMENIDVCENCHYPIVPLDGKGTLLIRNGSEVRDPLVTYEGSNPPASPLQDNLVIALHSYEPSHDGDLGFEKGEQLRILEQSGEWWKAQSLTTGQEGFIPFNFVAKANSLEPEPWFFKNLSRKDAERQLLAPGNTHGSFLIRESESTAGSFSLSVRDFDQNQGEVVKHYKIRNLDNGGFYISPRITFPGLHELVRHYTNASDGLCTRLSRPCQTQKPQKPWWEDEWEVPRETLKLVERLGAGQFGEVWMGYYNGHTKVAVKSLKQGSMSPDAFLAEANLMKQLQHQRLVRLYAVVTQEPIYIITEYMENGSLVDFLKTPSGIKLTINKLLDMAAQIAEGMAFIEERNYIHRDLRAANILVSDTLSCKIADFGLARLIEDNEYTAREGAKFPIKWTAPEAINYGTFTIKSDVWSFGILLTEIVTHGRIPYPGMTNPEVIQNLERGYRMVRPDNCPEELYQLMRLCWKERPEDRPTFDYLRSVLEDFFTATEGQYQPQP
Assay: Inhibition of a panel of kinases, in vitro HotSpot kinase assay: LCK
Assay type: biochemical
Details: D-compounds panel data; 1 μM ATP; read-out: IC50 LCK
Reported Endpoint: IC50

// worked examples, IC50 included
{"Entry Smiles": "C[C@@H]1[C@H](NC(=O)c2ccc(C3CC3)cc2C(F)(F)F)CCCN1c1cnc(C(N)=O)c(Nc2cnn(C)c2)n1", "Reported Endpoint": "IC50", "Result": "100 to 1000 nM"}
{"Entry Smiles": "C[C@@H]1[C@H](N2CCN(C)C2=O)CCCN1c1cnc(C(N)=O)c(Nc2ccc(C3(C)CCN(C4CC4)CC3)cc2)n1", "Reported Endpoint": "IC50", "Result": "10 to 100 nM"}
{"Entry Smiles": "CN1CCN(c2ccc(Nc3nc(N4CCC[C@@H](n5ccc6cc(C7CC7)ccc6c5=O)C4)cnc3C(N)=O)nc2)CC1", "Reported Endpoint": "IC50", "Result": "> 10000 nM"}
{"Entry Smiles": "C[C@H]1CC[C@@H](NC(=O)c2ccc(C3CC3)cc2)CN1c1cnc(C(N)=O)c(Nc2ccc(N3CCN(C)CC3)cc2)n1", "Reported Endpoint": "IC50", "Result": "100 to 1000 nM"}

Query block: I'd like to know its IC50. The compound in question is C[C@@H]1[C@H](NC(=O)c2ccc(C3CC3)cc2)CCCN1c1cnc(C(N)=O)c(Nc2ccc(CN3CCOCC3)cc2)n1
Result block: 10 to 100 nM

Query block: Lookup C[C@@H]1[C@H](NC(=O)c2ccc(C(C)(C)C)cc2)CCCN1c1cnc(C(N)=O)c(Nc2ccc(OC3CCN(C)CC3)cc2)n1
Result block: 10 to 100 nM

---

IC50 by entry:
Molecular target: ITK (Homo sapiens, UniProt Q08881)
Sequence (Q08881 1-620): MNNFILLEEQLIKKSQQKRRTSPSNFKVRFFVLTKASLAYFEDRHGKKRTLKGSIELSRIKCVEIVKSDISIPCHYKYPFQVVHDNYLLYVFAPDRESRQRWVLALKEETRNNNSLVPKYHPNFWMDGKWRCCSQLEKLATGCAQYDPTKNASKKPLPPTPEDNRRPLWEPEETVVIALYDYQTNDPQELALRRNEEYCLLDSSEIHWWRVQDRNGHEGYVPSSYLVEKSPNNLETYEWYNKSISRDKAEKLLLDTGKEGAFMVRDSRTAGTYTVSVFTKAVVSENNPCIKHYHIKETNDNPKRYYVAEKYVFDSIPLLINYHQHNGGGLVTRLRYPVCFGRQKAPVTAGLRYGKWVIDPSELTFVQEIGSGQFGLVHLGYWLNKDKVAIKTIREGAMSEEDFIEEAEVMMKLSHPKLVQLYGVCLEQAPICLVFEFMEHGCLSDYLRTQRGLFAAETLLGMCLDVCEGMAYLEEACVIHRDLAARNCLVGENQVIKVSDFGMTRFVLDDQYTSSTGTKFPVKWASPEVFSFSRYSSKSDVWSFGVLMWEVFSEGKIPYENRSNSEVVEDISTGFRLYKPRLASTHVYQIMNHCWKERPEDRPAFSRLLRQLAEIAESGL
Experiment: Inhibition of a panel of kinases, in vitro HotSpot kinase assay: ITK
Assay type: biochemical
Details: D-compounds panel data; 1 μM ATP

{"Compound": "C[C@H]1C[C@H](NC(=O)c2ccc(C3CC3)cc2)CN(c2cnc(C(N)=O)c(Nc3cnn(C)c3)n2)C1", "Tested System": "ITK (Homo sapiens, UniProt Q08881)", "IC50": "> 10000 nM"}

Query block: I'd like to know its IC50. The compound in question is Cc1ccc(-c2cnc([C@H]3CCCN(c4cnc(C(N)=O)c(Nc5cc(C)ns5)n4)C3)[nH]2)cc1
Result block: 1000 to 10000 nM

Query block: Lookup Cn1cc(Nc2nc(N3CC(NC(=O)c4ccc(C5CC5)cc4)CC(F)(F)C3)cnc2C(N)=O)cn1 (stereo in doubt)
Result block: 1000 to 10000 nM

Query block: Lookup C[C@@H]1[C@H](NC(=O)c2ccc(C3(O)CCCC3)cc2)CCCN1c1cnc(C(N)=O)c(Nc2cnn(C)c2)n1
Result block: 100 to 1000 nM

---

Molecular target: ITK (Homo sapiens, UniProt Q08881)
Sequence (Q08881 1-620): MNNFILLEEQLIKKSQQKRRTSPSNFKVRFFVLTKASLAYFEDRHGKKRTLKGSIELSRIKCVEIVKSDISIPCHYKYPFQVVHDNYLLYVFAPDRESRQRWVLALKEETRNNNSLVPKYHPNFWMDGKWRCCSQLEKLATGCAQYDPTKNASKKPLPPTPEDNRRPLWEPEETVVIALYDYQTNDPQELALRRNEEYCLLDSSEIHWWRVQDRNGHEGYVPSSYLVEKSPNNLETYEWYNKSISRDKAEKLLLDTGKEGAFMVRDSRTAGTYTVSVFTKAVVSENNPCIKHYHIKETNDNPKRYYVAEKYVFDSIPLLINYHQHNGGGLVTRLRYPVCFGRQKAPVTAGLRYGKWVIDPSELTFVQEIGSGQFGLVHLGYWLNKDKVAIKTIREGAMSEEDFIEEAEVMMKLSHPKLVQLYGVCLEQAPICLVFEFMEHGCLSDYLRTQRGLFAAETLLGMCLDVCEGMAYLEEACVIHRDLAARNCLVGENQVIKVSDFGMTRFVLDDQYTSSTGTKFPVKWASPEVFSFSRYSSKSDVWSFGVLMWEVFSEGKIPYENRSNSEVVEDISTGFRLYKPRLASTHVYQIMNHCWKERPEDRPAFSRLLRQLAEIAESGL
Assay: Inhibition of a panel of kinases, in vitro HotSpot kinase assay: ITK
Assay type: biochemical
Conditions: D-compounds panel data; 1 μM ATP
pIC50: −log10 of the molar value.
pIC50 by entry:

{"Compound": "C[C@@H]1[C@H](NC(=O)c2ccc3c(cnn3C)c2)CCCN1c1cnc(C(N)=O)c(Nc2ccc(N3CCN(C)CC3)cc2)n1 [Example D-234]", "pIC50": "7.00 to 8.00"}
{"Compound": "C[C@@H]1[C@H](NC(=O)c2ccc(SC(F)(F)F)cc2)CCCN1c1cnc(C(N)=O)c(Nc2ccc(N3CCN(C)CC3)cc2)n1 [Example D-233]", "pIC50": "6.00 to 7.00"}
{"Compound": "Cc1nc2cc(C(=O)N[C@@H]3CCCN(c4cnc(C(N)=O)c(Nc5cnn(C)c5)n4)[C@@H]3C)ccc2s1 [Example D-242]", "pIC50": "6.00 to 7.00"}
{"Compound": "Cc1cc(Nc2nc(N3C[C@H](NC(=O)c4ccc(C5CC5)cc4F)CC[C@@H]3C)cnc2C(N)=O)sn1 [Example D-181]", "pIC50": "5.00 to 6.00"}
{"Compound": "CN(C)C(=O)N[C@H]1CCCN(c2cnc(C(N)=O)c(Nc3ccc4ncccc4c3)n2)[C@@H]1CO (racemic) [Example D-64]", "pIC50": "< 5.00"}

Turning now to a further record.
Query block: I'd like to know its pIC50. The compound in question is C[C@@H]1[C@H](NC(=O)c2ccc(C(C)(C)N)cc2)CCCN1c1cnc(C(N)=O)c(Nc2cnn(C)c2)n1 [Example D-51]
Result block: 7.00 to 8.00

---

Target: JAK3 (Homo sapiens, UniProt P52333)
Sequence (P52333 whole entry): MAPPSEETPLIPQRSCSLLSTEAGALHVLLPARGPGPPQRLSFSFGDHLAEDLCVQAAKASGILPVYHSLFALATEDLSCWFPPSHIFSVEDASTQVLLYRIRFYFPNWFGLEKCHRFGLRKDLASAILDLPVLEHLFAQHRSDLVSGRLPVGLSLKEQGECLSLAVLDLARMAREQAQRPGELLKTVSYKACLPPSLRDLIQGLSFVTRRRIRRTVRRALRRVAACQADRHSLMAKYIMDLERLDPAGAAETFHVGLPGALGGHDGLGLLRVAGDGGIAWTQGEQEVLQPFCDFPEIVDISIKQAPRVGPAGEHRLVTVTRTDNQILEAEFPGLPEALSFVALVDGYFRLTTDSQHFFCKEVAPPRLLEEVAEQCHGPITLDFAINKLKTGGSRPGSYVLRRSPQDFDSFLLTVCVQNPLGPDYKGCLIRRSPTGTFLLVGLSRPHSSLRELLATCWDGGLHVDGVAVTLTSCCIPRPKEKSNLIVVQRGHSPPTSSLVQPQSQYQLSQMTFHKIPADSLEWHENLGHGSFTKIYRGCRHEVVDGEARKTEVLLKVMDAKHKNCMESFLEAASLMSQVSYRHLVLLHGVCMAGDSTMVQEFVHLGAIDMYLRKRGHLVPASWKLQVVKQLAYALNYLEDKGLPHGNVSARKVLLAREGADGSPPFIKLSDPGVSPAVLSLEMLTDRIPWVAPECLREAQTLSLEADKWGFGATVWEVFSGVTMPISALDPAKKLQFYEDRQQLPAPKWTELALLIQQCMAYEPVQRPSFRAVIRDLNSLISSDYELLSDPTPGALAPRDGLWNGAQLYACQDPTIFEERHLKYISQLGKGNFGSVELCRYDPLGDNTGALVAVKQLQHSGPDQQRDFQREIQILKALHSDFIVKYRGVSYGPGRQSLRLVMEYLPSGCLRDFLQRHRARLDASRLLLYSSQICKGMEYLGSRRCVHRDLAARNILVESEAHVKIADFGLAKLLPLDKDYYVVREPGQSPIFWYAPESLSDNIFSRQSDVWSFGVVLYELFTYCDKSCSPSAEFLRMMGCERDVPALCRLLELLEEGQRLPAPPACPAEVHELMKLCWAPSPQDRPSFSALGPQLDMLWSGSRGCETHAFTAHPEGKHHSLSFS
Assay: Inhibition of a panel of kinases, in vitro HotSpot kinase assay: JAK3
Assay type: biochemical
Conditions: D-compounds panel data; 1 μM ATP; read-out: IC50 JAK3
Reported Endpoint: IC50

// worked examples, IC50 included
{"Entry Smiles": "C[C@H]1C[C@@H](NC(=O)c2ccc(C3CC3)cc2)CN(c2cnc(C(N)=O)c(Nc3cnn(C)c3)n2)C1", "IC50": "> 10 µM"}
{"Entry Smiles": "C[C@@H]1[C@H](NC(=O)c2ccc(C3CC3)cc2C(F)(F)F)CCCN1c1cnc(C(N)=O)c(Nc2cnn(C)c2)n1", "IC50": "1 to 10 µM"}
{"Entry Smiles": "Cc1cc(Nc2nc(N3C[C@@H](NC(=O)c4ccc(C5CC5)cc4F)CC[C@H]3C)cnc2C(N)=O)sn1", "IC50": "1 to 10 µM"}
{"Entry Smiles": "C[C@@H]1[C@H](NC(=O)c2ccc(C3CC3)nc2)CCCN1c1cnc(C(N)=O)c(Nc2cnn(C)c2)n1", "IC50": "1 to 10 µM"}
{"Entry Smiles": "C[C@H]1C[C@H](NC(=O)c2ccc(C3CC3)cc2)CN(c2cnc(C(N)=O)c(Nc3cnn(C)c3)n2)C1", "IC50": "> 10 µM"}

Query block: I'd like to know its IC50. The molecule in question is Cc1cc(Nc2cc(N3CCC[C@@H](NC(=O)c4ccc(C5CC5)cc4F)[C@H]3C)cnc2C(N)=O)sn1
Result block: 1 to 10 µM

Query block: Lookup C[C@@H]1[C@H](NC(=O)c2ccc(C3CC3)cc2F)CCCN1c1cnc(C(N)=O)c(Nc2ccc(C3(C)CCN(C4CCC4)CC3)cc2)n1
Result block: 0.1 to 1 µM
